self-splicing fitness (ln) reference
- protocolDetails: self-splicing fitness, log relative to wild type (ln ratio); higher = more splicing; Tetrahymena group I intron in knt gene, E. coli kanamycin selection, DiMSum; sequences stand for … in CUCUCU…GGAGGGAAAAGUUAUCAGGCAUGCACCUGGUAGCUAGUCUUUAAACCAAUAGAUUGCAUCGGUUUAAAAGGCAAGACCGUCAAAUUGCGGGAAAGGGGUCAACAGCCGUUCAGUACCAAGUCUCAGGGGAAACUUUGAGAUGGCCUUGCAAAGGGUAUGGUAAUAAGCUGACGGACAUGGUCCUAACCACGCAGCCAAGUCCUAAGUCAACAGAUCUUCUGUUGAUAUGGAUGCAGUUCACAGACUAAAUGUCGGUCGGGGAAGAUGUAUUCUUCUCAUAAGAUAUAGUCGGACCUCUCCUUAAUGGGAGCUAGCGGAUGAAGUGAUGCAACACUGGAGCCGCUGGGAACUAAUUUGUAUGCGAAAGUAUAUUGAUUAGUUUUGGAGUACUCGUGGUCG;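 further: selection with 25 µg/mL kanamycin versus none on LB agar overnight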
- conditionSet: 37 °C
Write the value as a bare number.

Recorded results for 3 sequences are shown here.
AUCCAGCAAUAUUACGAUCU :: -0.641
UAUAAGCAAUAUUACGACCG :: -0.1
UGUUAGCAAUAUUACGAGCG :: -0.175

Q) I'd like to know its self-splicing fitness (ln). The sequence in question is CUGCAGCAAUAUUACGGAAC
A) -1.81

Q) I'd like to know its self-splicing fitness (ln). The sequence in question is GGUGAGCAAUAUUACGUGUU
A) -1.87

Q) I'd like to know its self-splicing fitness (ln). The sequence in question is GACAAGCAAUAUUACGCAUU
A) -1.96

Q) I'd like to know its self-splicing fitness (ln). The sequence in question is GGGCAGCAAUAUUACGGGUU
A) -0.384

Q) I'd like to know its self-splicing fitness (ln). The sequence in question is AAUCAGCAAUAUUACGAAUA
A) -0.266

Q) I'd like to know its self-splicing fitness (ln). The sequence in question is GGACAGCAAUAUUACGAACC
A) -0.895

---

self-splicing fitness (ln) reference
- protocolDetails: self-splicing fitness, log relative to wild type (ln ratio); higher = more splicing; Tetrahymena group I intron in knt gene, E. coli kanamycin selection, DiMSum; sequences stand for … in CUCUCU…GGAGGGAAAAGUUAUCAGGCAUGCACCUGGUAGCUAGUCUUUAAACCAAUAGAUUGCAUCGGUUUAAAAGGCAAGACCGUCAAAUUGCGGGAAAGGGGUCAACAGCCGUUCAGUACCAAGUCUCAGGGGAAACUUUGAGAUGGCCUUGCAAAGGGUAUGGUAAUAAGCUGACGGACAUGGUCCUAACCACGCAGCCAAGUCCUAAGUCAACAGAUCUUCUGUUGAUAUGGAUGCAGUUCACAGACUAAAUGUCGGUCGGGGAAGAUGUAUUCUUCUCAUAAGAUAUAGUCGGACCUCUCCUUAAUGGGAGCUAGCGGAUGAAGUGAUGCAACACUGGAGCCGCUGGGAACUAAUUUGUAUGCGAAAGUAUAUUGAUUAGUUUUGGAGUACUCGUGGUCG
- conditionSet: 37 °C
Write the value as a bare number.

GGUCAGCAAUAUUACGAAUA :: -0.645

Q) I'd like to know its self-splicing fitness (ln). The sequence in question is CCCGAGCAAUAUUACGGAUG
A) -1.35

Q) I'd like to know its self-splicing fitness (ln). The sequence in question is UGUCAGCAAUAUUACGGGUU
A) -1.07

Q) I'd like to know its self-splicing fitness (ln). The sequence in question is AUUGAGCAAUAUUACGAGAG
A) -2.66

Q) I'd like to know its self-splicing fitness (ln). The sequence in question is CUUAAGCAAUAUUACGAUUU
A) -2.7

Q) I'd like to know its self-splicing fitness (ln). The sequence in question is AUAGAGCAAUAUUACGGGCU
A) -2.51

Q) I'd like to know its self-splicing fitness (ln). The sequence in question is GGUAAGCAAUAUUACGUAAG
A) -2.17

Q) I'd like to know its self-splicing fitness (ln). The sequence in question is AGCCAGCAAUAUUACGUUGU
A) -2.01

Q) I'd like to know its self-splicing fitness (ln). The sequence in question is AUUGAGCAAUAUUACGCUAU
A) -2.12

Q) I'd like to know its self-splicing fitness (ln). The sequence in question is UAUCAGCAAUAUUACGUCUG
A) -0.205

---

- protocolDetails: self-splicing fitness, log relative to wild type (ln ratio); higher = more splicing; Tetrahymena group I intron in knt gene, E. coli kanamycin selection, DiMSum; sequences stand for … in CUCUCU…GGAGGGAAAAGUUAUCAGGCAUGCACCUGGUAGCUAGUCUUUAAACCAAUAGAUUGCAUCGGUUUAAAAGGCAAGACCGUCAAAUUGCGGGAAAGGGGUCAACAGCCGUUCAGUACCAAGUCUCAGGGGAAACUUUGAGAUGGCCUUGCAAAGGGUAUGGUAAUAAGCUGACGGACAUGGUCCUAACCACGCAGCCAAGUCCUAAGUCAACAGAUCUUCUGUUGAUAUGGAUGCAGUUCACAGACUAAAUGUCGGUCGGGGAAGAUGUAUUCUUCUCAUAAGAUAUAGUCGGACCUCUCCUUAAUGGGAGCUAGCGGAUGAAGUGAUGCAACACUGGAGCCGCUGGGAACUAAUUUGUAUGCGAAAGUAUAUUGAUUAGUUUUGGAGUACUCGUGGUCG
- conditionSet: 37 °C
Use Met when the recorded self-splicing fitness (ln) is no lower than -1; use Not met when it is lower.

Sample answers from the record:
AACGAGCAAUAUUACGUAGG :: Not met
GUAGAGCAAUAUUACGGAAG :: Not met
AUCUAGCAAUAUUACGUGUA :: Not met

Q) Say whether AUAUAGCAAUAUUACGACCU shows self-splicing fitness (ln) of -1 or more.
A) Met

Q) Say whether CGACAGCAAUAUUACGUUGC shows self-splicing fitness (ln) of -1 or more.
A) Not met

Q) Say whether AAGGAGCAAUAUUACGCUGA shows self-splicing fitness (ln) of -1 or more.
A) Not met

Q) Say whether UGGCAGCAAUAUUACGAUCC shows self-splicing fitness (ln) of -1 or more.
A) Met

Q) Say whether GUACAGCAAUAUUACGAGUA shows self-splicing fitness (ln) of -1 or more.
A) Not met

Q) Say whether GCCCAGCAAUAUUACGGGUC shows self-splicing fitness (ln) of -1 or more.
A) Not met

---

self-splicing fitness (ln) reference
- protocolDetails: self-splicing fitness, log relative to wild type (ln ratio); higher = more splicing; Tetrahymena group I intron in knt gene, E. coli kanamycin selection, DiMSum; sequences stand for … in CUCUCU…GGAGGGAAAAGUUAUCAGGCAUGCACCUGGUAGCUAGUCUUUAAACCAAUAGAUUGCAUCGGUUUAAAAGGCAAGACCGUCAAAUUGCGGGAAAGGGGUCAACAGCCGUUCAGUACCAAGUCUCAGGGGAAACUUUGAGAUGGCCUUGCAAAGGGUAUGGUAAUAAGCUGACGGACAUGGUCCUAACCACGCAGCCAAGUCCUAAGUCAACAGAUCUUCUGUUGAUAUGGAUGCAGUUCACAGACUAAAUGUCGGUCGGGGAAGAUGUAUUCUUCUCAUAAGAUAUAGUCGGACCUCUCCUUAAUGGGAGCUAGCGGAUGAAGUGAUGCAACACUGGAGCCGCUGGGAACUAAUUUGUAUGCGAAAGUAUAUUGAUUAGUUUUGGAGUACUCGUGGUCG
- conditionSet: 30 °C
Write the value as a bare number.

UUAGAGCAAUAUUACGGGAA :: -2.25
CGUCAGCAAUAUUACGUUAG :: -0.494
ACGGAGCAAUAUUACGACCG :: -2.1
AUGUAGCAAUAUUACGAUGU :: -0.753
UGUCAGCAAUAUUACGAUGC :: -2.28
GGAUAGCAAUAUUACGGCUA :: -0.0854
AUUAAGCAAUAUUACGCGCA :: -0.661
UUGGAGCAAUAUUACGACCU :: -2.97

Q) I'd like to know its self-splicing fitness (ln). The sequence in question is CCCCAGCAAUAUUACGCAAG
A) -3.05

Q) I'd like to know its self-splicing fitness (ln). The sequence in question is CUACAGCAAUAUUACGCCAA
A) -3.32

---

- protocolDetails: self-splicing fitness, log relative to wild type (ln ratio); higher = more splicing; Tetrahymena group I intron in knt gene, E. coli kanamycin selection, DiMSum; sequences stand for … in CUCUCU…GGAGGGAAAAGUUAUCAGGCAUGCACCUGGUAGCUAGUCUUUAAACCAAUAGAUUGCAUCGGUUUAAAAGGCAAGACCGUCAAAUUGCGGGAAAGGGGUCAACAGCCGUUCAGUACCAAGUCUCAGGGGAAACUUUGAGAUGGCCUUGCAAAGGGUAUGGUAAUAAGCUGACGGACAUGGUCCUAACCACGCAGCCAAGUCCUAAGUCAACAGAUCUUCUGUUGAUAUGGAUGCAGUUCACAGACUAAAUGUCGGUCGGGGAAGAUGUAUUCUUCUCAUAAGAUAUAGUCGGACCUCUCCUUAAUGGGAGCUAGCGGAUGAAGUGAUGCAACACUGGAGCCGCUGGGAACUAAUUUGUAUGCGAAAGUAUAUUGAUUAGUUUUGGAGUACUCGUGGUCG
- conditionSet: 37 °C
measureName: self-splicing fitness (ln)
Write the value as a bare number.

UCCAAGCAAUAUUACGGUUA :: 0.0448

Q) I'd like to know its self-splicing fitness (ln). The sequence in question is UGGCAGCAAUAUUACGCCUU
A) -0.596

Q) I'd like to know its self-splicing fitness (ln). The sequence in question is AAGAAGCAAUAUUACGAGAU
A) -1.56

Q) I'd like to know its self-splicing fitness (ln). The sequence in question is GAAAAGCAAUAUUACGACGG
A) -2.4

Q) I'd like to know its self-splicing fitness (ln). The sequence in question is GAACAGCAAUAUUACGGUUU
A) -1.34

Q) I'd like to know its self-splicing fitness (ln). The sequence in question is AUUAAGCAAUAUUACGGAAU
A) -1.3

Q) I'd like to know its self-splicing fitness (ln). The sequence in question is UCAGAGCAAUAUUACGCACG
A) -1.37

Q) I'd like to know its self-splicing fitness (ln). The sequence in question is GAAUAGCAAUAUUACGGUUC
A) -3.25

Q) I'd like to know its self-splicing fitness (ln). The sequence in question is UUCUAGCAAUAUUACGGGAG
A) -1.47
